- Test system: NCI/ADR-RES ovarian
- assayName: NCI-60 one-dose screen, 48 h (100 = growth as untreated, 0 = no growth, -100 = all killed)
- measurementParameters: 10 µM unless noted
About 83,000 compounds went through this panel and 20% of them were active in at least one assay; those are over-represented in the sample as a whole. Activity calls are given as the source filed them. The calls were made as follows: active = growth percent below 10; inactive = the rest.
readoutName: growth

Past entries and their recorded results:
The reported value for O=C1C2CCC1C(N1CCCC1)CC2 (stereo not given) in terms of growth is 102% (inactive)

The reported value for CCn1nccc1NC(=O)C(=O)c1cn(Cc2ccc(F)cc2)c2cccc(OC)c12 in terms of growth is 90.2% (inactive)

The reported value for CC[C@H](C)[C@H](NC(=O)[C@H]1CCCCN1C)C(=O)N(C)[C@H](CC(=O)c1nc(C(=O)N[C@@H](Cc2ccccc2)C[C@H](C)C(=O)O)cs1)C(C)C in terms of growth is 113% (inactive)

The reported value for Cc1c2cc(Cl)c3ccccc3c2c[n+]2ccccc12 in terms of growth is 87.2% (inactive)

The reported value for COC(=O)[C@@H](C[C@H](Cc1ccccc1)NC(=O)c1csc([C@@H](C[C@H](C(C)C)N(C)C(=O)[C@@H](NC(=O)[C@H]2CCCCN2C)C(C)C)OC(C)=O)n1)NC(=O)OCc1ccccc1 in terms of growth is 13.9% [9.5 µM] (inactive)

The reported value for CCN(CC)CCOC(=O)C(OC(C)C)(c1ccccc1)c1ccccc1 in terms of growth is 100% (inactive)

The reported value for Cc1ccc(C(Cc2ccccc2)NCCO)cc1 (stereo not given) in terms of growth is 100% (inactive)

The reported value for COC(=O)[C@@H](C)C[C@H](Cc1ccccc1)NC(=O)c1csc([C@@H](C[C@H](C(C)C)N(C)C(=O)C2(NC(=O)[C@H]3CCCCN3C)CC2)OC(C)=O)n1 in terms of growth is 61.8% (inactive)

The reported value for O=[N+]([O-])c1ccc(OP(=O)(CCl)N(CCCl)CCCl)cc1 (stereo not given) in terms of growth is 101% (inactive)

Further cases:
The reported value for Cc1ccc(C(=O)NCCCOc2ccc(N3C(N)=NC(N)=NC3(C)C)cc2Cl)cc1S(=O)(=O)F in terms of growth is 108% (inactive)

* * *

This listing pairs compounds with measured growth.
- Tested on: NCI-H522 lung
- assayName: NCI-60 one-dose screen, 48 h (100 = growth as untreated, 0 = no growth, -100 = all killed)
- measurementParameters: 10 µM unless noted
- Procedure: Growth inhibition of the NCI-H522 human Non-Small Cell Lung tumor cell line is measured as a screen for anti-cancer activity. Cells are grown in 96 well plates and exposed to the test compound for 48 hours. Compounds are tested at a single concentration, which is 10^-5 M for most compounds. The reported endpoint is percent growth (GI% or GIPRCNT), where numbers from 0 - 100% represent growth inhibition, and numbers from -100% - 0 represent cell death. […]
About 83,000 compounds went through this panel and 20% of them were active in at least one assay; those are over-represented in the sample as a whole. The source made the active and inactive calls. Rule for the calls: active = growth percent below 10; inactive = the rest.

The reported value for Cn1cccc1C1CC(=O)N(CCC[Se]C#N)C1=O (centres undefined) in terms of growth is 23.5% (inactive)

The reported value for COC(=O)[C@@H](NC(=O)c1cn(CCC2CCCCC2)c2ccccc12)C(C)(C)C in terms of growth is 63.7% (inactive)

The reported value for COC(=O)[C@@H](C)C[C@H](Cc1ccccc1)NC(=O)c1csc([C@@H](C[C@H](C(C)C)N(C)C(=O)[C@@H](NC(=O)[C@H]2CCCCN2C)c2ccc(F)cc2)OC(C)=O)n1 in terms of growth is -2.85% (active)

# evaluate next
The reported value for Cc1c(O)c(CN(CCCl)CCCl)cc(CN(CCCl)CCCl)c1O in terms of growth is 79.4% (inactive)

* * *

- Tested on: MALME-3M melanoma
- assayName: NCI-60 one-dose screen, 48 h
- measurementParameters: 10 µM unless noted
The panel holds about 83,000 compounds, 20% with a hit somewhere; the sample as a whole holds those more often. The source made the active and inactive calls. How the source made its calls: active means growth percent below 10; inactive means the rest.
Pick one: TRUE for active, FALSE for inactive

Query block: Record lookup: outcome of this test for O=C(CC1(O)C(=O)N(Cc2ccccc2)c2ccc(Cl)cc21)c1ccc(C(=O)NCC2CCC3(CC2)OOC2(CCCCC2)OO3)cc1 (stereo not drawn) ?
Result block: TRUE

Query block: Record lookup: outcome of this test for N#C[Se]CCN1C(=O)c2ccccc2C1=O ?
Result block: FALSE

Query block: Record lookup: outcome of this test for CCCCCC1(CCBr)C(=O)NC(=O)NC1=O ?
Result block: FALSE

Query block: Record lookup: outcome of this test for CC1(C)C(C(=O)c2cn(CCCCF)c3ccccc23)C1(C)C ?
Result block: FALSE

* * *

- Test system: MALME-3M melanoma
- assayName: NCI-60 one-dose screen, 48 h (100 = growth as untreated, 0 = no growth, -100 = all killed)
- measurementParameters: 10 µM unless noted
- Description: Cells are grown in 96 well plates and exposed to the test compound for 48 hours. Compounds are tested at a single concentration, which is 10^-5 M for most compounds. The reported endpoint is percent growth (GI% or GIPRCNT), where numbers from 0 - 100% represent growth inhibition, and numbers from -100% - 0 represent cell death. For example, a value of 40 represents 60% growth inhibition. A value of 0 means no net growth occurred over the course of the experiment. […]
The panel holds about 83,000 compounds, 20% with a hit somewhere; the sample as a whole holds those more often.
Think of 90% as a floor: if growth stands on it or above, it is Fulfilled; beneath it, Not fulfilled.

Here's what some known entries look like.
Query block: Assess whether reported growth for CC[C@H](C)[C@H](NC(=O)c1cccn1C)C(=O)N(C)[C@H](C[C@@H](OC(C)=O)c1nc(C(=O)N[C@@H](Cc2ccccc2)C[C@H](C)C(=O)OC)cs1)C(C)C sits at 90% or higher.
Result block: Not fulfilled

Query block: Assess whether reported growth for CN(C)C1C(=O)C(C(N)=O)=C(O)C2(O)C(=O)C3=C(O)c4c(O)cccc4C(C)(O)C3CC12.[Cl][Sb]([Cl])[Cl] (centres undefined) sits at 90% or higher.
Result block: Not fulfilled

Query block: Assess whether reported growth for COc1ccc(/C=C\c2cc(OC)c(OC)c(OC)c2)cc1OCC(=O)Nc1nc2ccc(F)cc2s1 sits at 90% or higher.
Result block: Not fulfilled

Query block: Assess whether reported growth for [Cl][Hg][n]1c(-c2ccco2)nc2ccccc21 sits at 90% or higher.
Result block: Fulfilled

Query block: Assess whether reported growth for COC(=O)[C@@]1(C)CC[C@]2(C)CC[C@]3(C)C4=CC(=O)c5c(cc(O)c(O)c5C)[C@]4(C)CC[C@@]3(C)[C@@H]2C1 sits at 90% or higher.
Result block: Fulfilled

Query block: Assess whether reported growth for O=C1C(N2CC2)=C(N2CC2)C(=O)C(N2CC2)=C1N1CC1 sits at 90% or higher.
Result block: Not fulfilled

Query block: Assess whether reported growth for Cn1cc(C2=C(c3cn(C4CCN(Cc5ccccn5)CC4)c4ccccc34)C(=O)NC2=O)c2ccccc21 sits at 90% or higher.
Result block: Not fulfilled

Continue with the next molecule.
Query block: Assess whether reported growth for COC(=O)[C@@H](C)C[C@H](Cc1ccccc1)NC(=O)c1csc(CC[C@H](C(C)C)N(C)C(=O)[C@@H](NC(=O)[C@H]2CCCCN2C)C(C)C)n1 sits at 90% or higher.
Result block: Not fulfilled

Ref: PubChem BioAssay (NCI)
